Data origin, for the record: ChEMBL document CHEMBL1123101

Tested on: Canis familiaris
METHOD_SUMMARY: Maximum percent inhibition of acid output in pentagastrin-stimulated Heidenhain pouch dog following 10 mg/kg i.v. administration.
Type: functional
TEST_PARAMETERS: Canis lupus familiaris, route intravenous
Criterion: inhibition in vivo at 10 mg/kg meeting or surpassing 30%. Met: rule met. Not met: rule not met.

Answered examples (6):
• Cc1cc(-c2c[nH]c(C)n2)ccn1 = rule not met
• Nc1n[nH]c(-c2ccncc2)n1 = rule met
• CCNc1cc(-c2nc[nH]n2)ccn1 = rule not met
• Cc1n[nH]c(-c2ccnc(CO)c2)n1 = rule not met
• CCNc1cc(-c2c[nH]c(N)n2)ccn1 = rule met
• CCNc1cc(-c2c[nH]cn2)ccn1 = rule not met

Q. Could you verify whether the entry CCNc1cc(-c2c[nH]c(C)n2)ccn1 shows inhibition in vivo at 10 mg/kg of no less than 30%?
A. rule met

Q. Item CCNc1cc(-c2n[nH]c(NC)n2)ccn1 with inhibition in vivo at 10 mg/kg of 30% or above?
A. rule met

Q. Exam item: decide whether the reported inhibition in vivo at 10 mg/kg for Nc1n[nH]c(-c2ccnc(NCc3ccccc3)c2)n1 is at least 30%.
A. rule met

Q. # bool: inhibition in vivo at 10 mg/kg of CCCCCCNc1cc(-c2n[nH]c(N)n2)ccn1 >= 30%
A. rule met

Q. Does inhibition in vivo at 10 mg/kg meet or surpass 30% for Cc1n[nH]c(-c2ccnc(Cc3ccccc3)c2)n1 ?
A. rule met
